FYI, the data here is from patent US8470800B2.

ASSAYED SYSTEM: A3 adenosine receptor (Homo sapiens (Human), UniProt P0DMS8)
Sequence (P0DMS8 whole entry): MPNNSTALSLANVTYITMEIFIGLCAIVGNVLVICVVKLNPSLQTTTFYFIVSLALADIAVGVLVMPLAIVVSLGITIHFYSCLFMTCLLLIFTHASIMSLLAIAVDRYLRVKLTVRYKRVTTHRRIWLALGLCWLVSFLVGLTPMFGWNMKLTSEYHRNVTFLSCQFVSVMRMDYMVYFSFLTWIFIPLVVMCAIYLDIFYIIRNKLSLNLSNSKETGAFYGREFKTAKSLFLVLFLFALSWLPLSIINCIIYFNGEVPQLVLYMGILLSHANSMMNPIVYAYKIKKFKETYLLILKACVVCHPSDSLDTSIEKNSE
EXPERIMENT SUMMARY: Adenosine receptor binding selectivity A1 > A3
MEASUREMENT SETUP: ratio of Ki values
Rule for this label: y means A1 > A3 SELECTIVITY [KiA3(nm)/KiA1(nm)] is less than 300; n means A1 > A3 SELECTIVITY [KiA3(nm)/KiA1(nm)] is at least 300.

> print(dat)
                                   molecule  class.name
1  O=[N+]([O-])OC[C@H]1O[C@@H](n2cnc3c(NC4CCOC4)ncnc32)[C@H](O)[C@@H]1O (some centres unmarked)           y
2  O=S(=O)([O-])OC[C@H]1O[C@@H](n2cnc3c(NC4CCCCC4)nc(Cl)nc32)[C@H](O)[C@@H]1O.[Na+]           y
3  O=S(=O)([O-])OC[C@H]1O[C@@H](n2cnc3c(NC4CCCC4)ncnc32)[C@H](O)[C@@H]1O.[Na+]           y
4  O=[N+]([O-])OC[C@H]1O[C@@H](n2cnc3c(NC4CCCCC4)ncnc32)[C@H](O)[C@@H]1O           n
5  O=[N+]([O-])OC[C@H]1O[C@@H](n2cnc3c(NC4CC5CCC4C5)ncnc32)[C@H](O)[C@@H]1O (some centres unmarked)           y

* * *

ASSAYED SYSTEM: A2A adenosine receptor (Homo sapiens (Human), UniProt P29274)
Sequence (P29274 whole entry): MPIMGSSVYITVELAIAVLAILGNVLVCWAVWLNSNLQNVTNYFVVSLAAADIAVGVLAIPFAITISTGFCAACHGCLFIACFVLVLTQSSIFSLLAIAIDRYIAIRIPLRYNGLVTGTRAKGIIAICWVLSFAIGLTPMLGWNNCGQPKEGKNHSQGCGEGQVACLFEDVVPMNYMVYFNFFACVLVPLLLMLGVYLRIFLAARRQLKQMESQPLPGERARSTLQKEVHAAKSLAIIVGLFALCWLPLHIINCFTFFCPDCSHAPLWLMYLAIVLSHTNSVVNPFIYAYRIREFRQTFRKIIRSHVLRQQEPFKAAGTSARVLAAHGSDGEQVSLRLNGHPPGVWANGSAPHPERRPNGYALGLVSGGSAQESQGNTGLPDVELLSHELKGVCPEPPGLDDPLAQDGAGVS
EXPERIMENT SUMMARY: Adenosine receptor binding selectivity A1 > A2A
MEASUREMENT SETUP: ratio of Ki values
PROPERTY: A1 > A2A SELECTIVITY [KiA2(nm)/KiA1(nm)]

> print(dat)
                                   compound                                  property  value.qualifier  value.observed
1  O=[N+]([O-])OC[C@H]1O[C@@H](n2cnc3c(NC4CCCCC4)ncnc32)[C@H](O)[C@@H]1O  A1 > A2A SELECTIVITY [KiA2(nm)/KiA1(nm)]                =             878
2  O=[N+]([O-])OC[C@H]1O[C@@H](n2cnc3c(NC4CC5CCC4C5)ncnc32)[C@H](O)[C@@H]1O (some centres unmarked)  A1 > A2A SELECTIVITY [KiA2(nm)/KiA1(nm)]                =            3945
3  O=S(=O)([O-])OC[C@H]1O[C@@H](n2cnc3c(NC4CCCC4)ncnc32)[C@H](O)[C@@H]1O.[Na+]  A1 > A2A SELECTIVITY [KiA2(nm)/KiA1(nm)]                =            2250
4  O=S(=O)([O-])OC[C@H]1O[C@@H](n2cnc3c(NC4CCCCC4)nc(Cl)nc32)[C@H](O)[C@@H]1O.[Na+]  A1 > A2A SELECTIVITY [KiA2(nm)/KiA1(nm)]                =             200
5  O=[N+]([O-])OC[C@H]1O[C@@H](n2cnc3c(NC4CCOC4)ncnc32)[C@H](O)[C@@H]1O (some centres unmarked)  A1 > A2A SELECTIVITY [KiA2(nm)/KiA1(nm)]                >            9434
